TEST SUMMARY: inhibitors of TNFa-induced NFkB p65 translocation, primary screen, imaging, HUVEC, MLSMR starter and 10KST1 sets (AID 438);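 note: compound added about 3h40 before a 20 min TNFalpha stimulation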
DETAILS: HUVEC TNFa-induced p65 nuclear translocation; measured here: nuclei count (cytotoxicity indicator), at 2.08 µM
Label label 0 if cell count falls below 600; label label 1 in every other case.

Say whether CCOC(=O)CSc1nc2ccccc2c(=O)n1C shows cell count of 600 or more. label 1

Confirm if cell count reported for the compound CC1CN(C2CCN(C(=O)COc3ccccc3)CC2)CC(C)O1 (stereo not given) is 600 or above. label 0

Exam item: decide whether the reported cell count for COc1ccc(CCn2c(=N)c(C(=O)NCc3ccco3)cc3c(=O)n4ccccc4nc32)cc1 is at least 600. label 0
